- Tested on: MDA-MB-231 breast
- testName: NCI-60 one-dose screen, 48 h (100 = growth as untreated, 0 = no growth, -100 = all killed)
- experimentalSetup: 10 µM unless noted
Compounds without any hit were thinned out: in the full panel of roughly 83,000, 20% have a hit.
Simple rule here: growth less than 40% is T, otherwise F.

Hi there! Is growth for `O=C(Cc1ccc(/C=C/C(=O)c2ncc[nH]2)cc1)Nc1ccc(S(F)(F)(F)(F)F)cc1` below 40%, do you know?
F

is_below(growth, 40%) for `O=C1NC(=O)[C@@H](c2cn3c4c(cccc24)CCC3)[C@@H]1c1c[nH]c2ccccc12` ?
T

Quick check: growth of `COc1cc2c(cc1OCCCN1Cc3ccc(OCCCCC(=O)N4CCC(CCN5CCCC5)CC4)cc3C1)N=C(N)C21CCCC1` under 40%?
F

Strictly below 40% in growth? `Ic1ccccc1-c1ccccc1`
F

For this compound, is growth lower than 40%? CC(=O)C1=C(C)NC(SCc2nnc(-c3ccc(C)cc3)o2)=NC1c1ccc(F)cc1 (stereo not given)
F

Strictly below 40%: is that where growth of Nc1cc2c(cc1Br)-c1c(C(=O)O)cccc1C2O (stereo not given) sits?
F

I'd appreciate it if you could check whether CC(=O)OC1Oc2ccccc2-c2oc(=O)c(-c3cc4ccc(N(C)C)cc4oc3=O)cc21 (stereo not given) has growth smaller than 40%.
F

Decide: growth of `Brc1ccc([I+]c2ccc(Br)cc2)cc1` strictly below 40%?
T

Record `CCCS(=O)(=O)Nc1ccc(F)c(C(=O)c2c[nH]c3ncc(-c4ccc(Cl)cc4)cc23)c1F` : is its growth strictly below 40%?
T

* * *

- Tested on: PC-3 prostate
- testName: NCI-60 one-dose screen, 48 h
- experimentalSetup: 10 µM unless noted
About 83,000 compounds went through this panel and 20% of them were active in at least one assay; those are over-represented in the sample as a whole. Active and inactive are the calls of the source. How the source made its calls: active means growth percent below 10; inactive means the rest.
// allowed return values: active, inactive

Hi team, can someone confirm the assay call for `S=C(NCc1ccc2c(c1)OCO2)N1CCN(c2ncnc3c2oc2ccccc23)CC1` ?
inactive

In this assay, the call recorded for `Cc1nc(Nc2n[nH]c3c2CN(C(=O)N[C@H](CN(C)C)c2ccccc2)C3(C)C)c2sccc2n1` was what?
active

Record lookup: outcome of this test for `COc1ccc(Nc2ncccc2NC(=O)c2cn(Cc3cccc(Oc4ccccc4)c3)nn2)cc1` ?
inactive

What is the recorded call for this compound in the test? Clc1ccc(C(Cn2ccnc2)OCc2ccsc2Cl)c(Cl)c1 (configuration not stated)
inactive

// outcome(item) with item = `CCCS(=O)(=O)Nc1ccc(F)c(C(=O)c2c[nH]c3ncc(-c4ccc(Cl)cc4)cc23)c1F`
inactive

Could you check what this test reported for `COc1cc2ncnc(Nc3ccc(F)c(Cl)c3)c2cc1NC(=O)/C=C/CN1CCCCC1` ?
active

Could you kindly confirm the outcome this assay logged for `C[C@@H]1COC(Nc2ccc3ncnc(Nc4ccc(OCc5nccs5)c(Cl)c4)c3c2)=N1` ?
active

Which outcome was assigned to O=C(O)C1(Cc2cccc(Nc3nccs3)n2)CCC(Oc2cccc(Cl)c2F)CC1 (configuration not stated) in this test?
inactive

Returns: the outcome recorded for `CC1(COc2ccc3c(c2)ncn3-c2ccc3cccc(N4CCC(N)CC4)c3n2)COC1` in this assay.
inactive

Field: outcome | Entry: `CC#CC(=O)N1CCC[C@H]1c1nc(-c2ccc(C(=O)Nc3ccccn3)cc2)c2c(N)nccn12`
inactive

Any idea what this test logged for `Cn1ncc(Cl)c1-c1cc(C(=O)N[C@H](CN)Cc2ccc(F)c(F)c2)oc1Cl` ?
active

Could you check what this test reported for `CC(C)(C)c1cnc(CSc2cnc(NC(=O)C3CCNCC3)s2)o1` ?
active

Assay outcome for `Cc1ccc(NC(=O)Nc2ccc(Nc3ncnc4sc5c(c34)CCOC5)cc2)cc1Cl` : what was it?
inactive

Tell me the recorded outcome of this test for N#CC1(C#N)C(c2cccs2)NC(c2cccs2)C1(C#N)C#N (configuration not stated) .
inactive

For this compound, state the assay outcome: `O=C1NC(=O)[C@@H](c2cn3c4c(cccc24)CCC3)[C@@H]1c1c[nH]c2ccccc12`
inactive

Which result was noted for this compound in the test: `[2H]C1([2H])[C@H](C)O[C@H](C)C([2H])([2H])N1c1ccc(NC(=O)c2cccc(-c3ccc(OC(F)(F)F)cc3)c2C)cn1`
inactive

Test call for this compound, please: `CC(C)c1cc(CNc2nc(Nc3cc(C4CC4)[nH]n3)cc(N3CCN(C)CC3)n2)on1`
active

Per the assay record, what outcome was assigned to `COC(=O)N[C@@H](C)CNc1nccc(-c2cn(C(C)C)nc2-c2cc(Cl)cc(NS(C)(=O)=O)c2F)n1` ?
inactive

Returns: the outcome recorded for `COc1ccc(-c2ccc3c(N4CCOC[C@@H]4C)nc(N4CCOC[C@@H]4C)nc3n2)cc1CO` in this assay.
active

Recorded call for `CC(C)[C@@H]1CC[C@]2(CO2)[C@@H]2C(=O)OCC(C(=O)O)=C[C@H]21` ?
inactive

Record lookup: outcome of this test for COc1cc2c(c(OC)c1)C1c3ccccc3NC(=O)N1CC2 (configuration not stated) ?
inactive

Field: outcome | Entry: `C[C@H](NC(=O)c1c(N)nn2cccnc12)c1cc2cccc(C#Cc3cnn(C)c3)c2c(=O)n1-c1ccccc1`
inactive

Recorded call for `CC(C)[C@@H]1CC[C@@H]2[C@@H]1[C@H](OC(=O)/C=C/c1ccccc1)[C@]1(C(C)C)C[C@@H](OC(=O)CO)[C@@]2(C)O1` ?
inactive

Per the records of this test, what outcome belongs to `CCOc1cc2ncc(C#N)c(Nc3ccc(OCc4ccccn4)c(Cl)c3)c2cc1NC(=O)/C=C/CN(C)C` ?
active

// outcome(item) with item = `CCc1nc2cc(F)c(/C=C/C(=O)NO)cc2c(=O)n1CCc1ccccc1`
inactive

# lookup: test call for `O=C(O)c1ccc(Nc2ncc3c(n2)-c2ccc(Cl)cc2C(c2c(F)cccc2F)=NC3)cc1`
inactive

What was the test verdict on `C=CC(=O)N1CCC[C@H](n2c(=O)n(-c3ccc(Oc4ccccc4)cc3)c3c(N)ncnc32)C1` ?
inactive

# outcome recorded in this test, key = `COc1cc(OC)c(/C=C/S(=O)(=O)Cc2ccc(OC)c(NCC(=O)O)c2)c(OC)c1`
inactive

Give the logged outcome of this assay for the following compound: `NC1=Nc2cc(OCCCN3Cc4ccccc4C3)c(OCC3CC3)cc2C12CCCC2`
inactive

GET /call?item= `CCc1nc2cc(/C=C/C(=O)NO)c(F)cc2c(=O)n1CCc1ccccc1` returns the recorded outcome of this test.
inactive

For this compound, state the assay outcome: `O=C1NC(=O)C(c2cnc3ccccn23)=C1c1cn2c3c(cc(F)cc13)CN(C(=O)N1CCCCC1)CC2`
inactive

# outcome recorded in this test, key = `Cc1cc([C@@H](C)Nc2ccccc2C(=O)O)c2nc(N3CCOCC3)cc(=O)n2c1`
inactive

So what was the verdict on `COc1ccc(S(=O)(=O)N(C(C)=O)c2ccccc2/C=C/c2cc[n+]([O-])cc2)cc1` in this test?
inactive

Short answer needed: outcome of this test for `O=C(NOC[C@H](O)CO)c1ccc(F)c(F)c1Nc1ccc(I)cc1F` ?
inactive

For this compound, state the assay outcome: `O=C(Nc1cn[nH]c1-c1nc2ccc(CN3CCOCC3)cc2[nH]1)NC1CC1`
inactive

Answer briefly: the call reported for C=CC(=O)N(C)[C@H]1C[C@H]2OC(C)(C1OC)n1c3ccccc3c3c4c(c5c6ccccc6n2c5c31)C(=O)NC4 (some centres not stated) in this assay.
inactive

Test call, this compound: `COc1ncc(-c2ccc3nccc(-c4ccnnc4)c3c2)cc1NS(=O)(=O)c1ccc(F)cc1F`
active

* * *

- System: IGROV1 ovarian
- testName: NCI-60 one-dose screen, 48 h (100 = growth as untreated, 0 = no growth, -100 = all killed)
- experimentalSetup: 10 µM unless noted
Compounds without any hit were thinned out: in the full panel of roughly 83,000, 20% have a hit. Calls of active or inactive are those of the source. The calls were made as follows: active = growth percent below 10; inactive = the rest.
Would you mind telling me the reported growth of each entry?

Tell me its growth given `Cc1cc(N2CCOCC2)nc(N(CCNc2ccnc3cc(Cl)ccc23)Cc2cccs2)n1` as the entry.
35.1% (inactive)

Look up and report measured growth for this entry: `COc1cc(NCCN(CC(C)C)CC(C)C)c2ncc(C)cc2c1`
76.5% (inactive)

Note growth for the compound shown: `COc1cc(OC)c(C(=O)/C=C/c2cc3c(cc2OCc2ccccc2)OC(C)(C)CC3)cc1CC=C(C)C`
66.5% (inactive)

Determine its reported growth: CCOC(=O)C1=C(C)NC(=O)NC1c1cc(=O)oc2ccc(C)cc12 (centres undefined)
103% (inactive)

Answer with reported growth of `CCN1CCN(Cc2ccc(NC(=O)Nc3nc(-c4cc(OC)c(OC)c(OC)c4)cs3)cc2C(F)(F)F)CC1`
49.5% (inactive)

Identify measured growth corresponding to `CC(=O)Nc1cccc(-n2c(=O)n(C3CC3)c(=O)c3c(Nc4ccc(I)cc4F)n(C)c(=O)c(C)c32)c1`
16.9% (inactive)

Given the compound `CNC(=O)c1cccc2cc(Oc3ccnc4cc(OCC5(N)CC5)c(OC)cc34)ccc12` , write its reported growth.
39.5% (inactive)

Please report growth for the following compound: COc1cc2c(c(OC)c1)C1c3ccccc3NC(=O)N1CC2 (centres undefined)
60.2% (inactive)

Consider the compound `C=CC[n+]1c(/C=C2\Sc3ccccc3N2C)sc(-c2ccccc2)c1-c1ccccc1` . State its measured growth.
36.7% (inactive)
